Target: UniProt:Q04771
Sequence (Q04771 21-509): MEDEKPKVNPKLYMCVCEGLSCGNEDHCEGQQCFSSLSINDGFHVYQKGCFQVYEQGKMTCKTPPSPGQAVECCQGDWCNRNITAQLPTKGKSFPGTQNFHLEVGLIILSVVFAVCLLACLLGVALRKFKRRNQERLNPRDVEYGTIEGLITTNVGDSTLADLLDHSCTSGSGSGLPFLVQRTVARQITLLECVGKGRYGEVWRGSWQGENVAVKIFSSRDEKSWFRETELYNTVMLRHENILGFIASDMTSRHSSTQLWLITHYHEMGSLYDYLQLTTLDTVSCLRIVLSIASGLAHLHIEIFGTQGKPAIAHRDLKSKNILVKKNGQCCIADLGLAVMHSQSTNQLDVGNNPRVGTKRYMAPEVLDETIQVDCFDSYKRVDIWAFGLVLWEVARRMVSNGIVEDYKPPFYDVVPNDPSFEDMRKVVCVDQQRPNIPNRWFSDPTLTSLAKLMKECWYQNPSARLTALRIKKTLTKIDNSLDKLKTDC
Assay: Activin-Like Kinase 2 (ALK2) enzyme assay
Type: biochemical
attribute measured: IC50

>>> measured_result("COc1cc(NS(=O)(=O)Cc2ccccc2)cc(-c2cc(-c3ccc(N4CCNCC4)cc3)cnc2N)c1 [CSLP24]")
"> 1 nM"
>>> measured_result("CCCS(=O)(=O)Nc1cc(-c2cc(-c3ccccc3S(C)(=O)=O)cnc2N)ccc1OC [CSLP33]")
"> 100000 nM"
>>> measured_result("CCCS(=O)(=O)Nc1cc(-c2cc(-c3cccc(S(C)(=O)=O)c3)cnc2N)ccc1OC [CSLP30]")
"> 10000 nM"
>>> measured_result("COc1cc(NS(C)(=O)=O)cc(-c2cc(-c3ccc(N4CCNCC4)cc3)cnc2C)c1 [CSLP2]")
"> 10 nM"
>>> measured_result("CCCS(=O)(=O)Nc1cc(-c2cc(-c3ccc(N4CCNCC4)cc3)cnc2N)ccc1C [CSLP26]")
"> 1000 nM"
>>> measured_result("CCOc1cc(NS(=O)(=O)C(C)C)cc(-c2cc(-c3ccc(N4CCNCC4)cc3)cnc2N)c1 [CSLP22]")
"> 100 nM"
>>> measured_result("CCCS(=O)(=O)Nc1cc(-c2cc(-c3ccc(N4CCNCC4)cc3)cnc2N)cc2c1OCCO2 [CSLP52]")
"> 100000 nM"
>>> measured_result("COc1cc(NS(C)(=O)=O)cc(-c2cc(-c3ccc(N4CCNCC4)cc3)cnc2N)c1 [CSLP3]")
"> 1 nM"
>>> measured_result("COc1cc(NS(=O)(=O)C(C)C)cc(-c2cc(-c3ccc(N4CCNCC4)cc3)cnc2N)c1 [CSLP8]")
"> 1 nM"
>>> measured_result("CCCS(=O)(=O)Nc1cc(-c2cc(-c3ccc(N4CCNCC4)cc3)cnc2N)cc(Cl)c1C [CSLP40]")
"> 100 nM"
>>> measured_result("CCCS(=O)(=O)N1CCc2ccc(-c3cc(-c4ccc(N5CCNCC5)cc4)cnc3N)cc21 [CSLP46]")
"> 100000 nM"
>>> measured_result("CCCS(=O)(=O)Nc1cc(-c2cc(-c3ccc(N4CCNCC4)cc3)cnc2N)cc(C)c1C [CSLP45]")
"> 100 nM"
>>> measured_result("COc1cc(NS(=O)(=O)C(C)C)cc(-c2cc(-c3ccc(N4CCNCC4)cc3)cnc2C)c1 [CSLP16]")
"> 100 nM"
>>> measured_result("CCCS(=O)(=O)Nc1cc(-c2cc(-c3ccc(N4CCNCC4)cc3)cnc2N)ccc1O [CSLP48]")
"> 100 nM"
>>> measured_result("COc1cc(NS(=O)(=O)CC(C)C)cc(-c2cc(-c3ccc(N4CCNCC4)cc3)cnc2C)c1 [CSLP17]")
"> 10 nM"
>>> measured_result("CCCS(=O)(=O)NCc1cc(-c2cc(-c3ccc(N4CCNCC4)cc3)cnc2N)ccc1OC [CSLP36]")
"> 100 nM"

Data origin, for the record: patent US11135209B2
